experiment: Plasma clearance in C57BL/6 mouse at 1 mg/kg, iv and 2 mg/kg, po; assay type: ADME, organism-based
assayEndpoint: clearance
Dear colleague, please send the value followed by its unit.

Measured clearance, "O=C1COc2cc(Cl)c(CNC34CCC(C[C@]5(O)Cn6c(=O)ccc7ncc(F)c5c76)(CC3)OC4)nc2N1" : 38 mL/min/kg

Measured clearance, "O=C1COc2cc(F)c(CNC34CCC(C[C@]5(O)Cn6c(=O)ccc7ncc(F)c5c76)(CC3)OC4)nc2N1" : 15 mL/min/kg

Measured clearance, "O=c1ccc2ncc(F)c3c2n1C[C@@]3(O)CC12CCC(NCc3cc4c(cn3)OCCO4)(CC1)CO2" : 47 mL/min/kg

###

target: Voltage-gated inwardly rectifying potassium channel KCNH2 (Homo sapiens); assay: Inhibition of human ERG expressed in CHO cells measured over 5 mins by patch clamp assay
Sequence (Q12809 whole entry): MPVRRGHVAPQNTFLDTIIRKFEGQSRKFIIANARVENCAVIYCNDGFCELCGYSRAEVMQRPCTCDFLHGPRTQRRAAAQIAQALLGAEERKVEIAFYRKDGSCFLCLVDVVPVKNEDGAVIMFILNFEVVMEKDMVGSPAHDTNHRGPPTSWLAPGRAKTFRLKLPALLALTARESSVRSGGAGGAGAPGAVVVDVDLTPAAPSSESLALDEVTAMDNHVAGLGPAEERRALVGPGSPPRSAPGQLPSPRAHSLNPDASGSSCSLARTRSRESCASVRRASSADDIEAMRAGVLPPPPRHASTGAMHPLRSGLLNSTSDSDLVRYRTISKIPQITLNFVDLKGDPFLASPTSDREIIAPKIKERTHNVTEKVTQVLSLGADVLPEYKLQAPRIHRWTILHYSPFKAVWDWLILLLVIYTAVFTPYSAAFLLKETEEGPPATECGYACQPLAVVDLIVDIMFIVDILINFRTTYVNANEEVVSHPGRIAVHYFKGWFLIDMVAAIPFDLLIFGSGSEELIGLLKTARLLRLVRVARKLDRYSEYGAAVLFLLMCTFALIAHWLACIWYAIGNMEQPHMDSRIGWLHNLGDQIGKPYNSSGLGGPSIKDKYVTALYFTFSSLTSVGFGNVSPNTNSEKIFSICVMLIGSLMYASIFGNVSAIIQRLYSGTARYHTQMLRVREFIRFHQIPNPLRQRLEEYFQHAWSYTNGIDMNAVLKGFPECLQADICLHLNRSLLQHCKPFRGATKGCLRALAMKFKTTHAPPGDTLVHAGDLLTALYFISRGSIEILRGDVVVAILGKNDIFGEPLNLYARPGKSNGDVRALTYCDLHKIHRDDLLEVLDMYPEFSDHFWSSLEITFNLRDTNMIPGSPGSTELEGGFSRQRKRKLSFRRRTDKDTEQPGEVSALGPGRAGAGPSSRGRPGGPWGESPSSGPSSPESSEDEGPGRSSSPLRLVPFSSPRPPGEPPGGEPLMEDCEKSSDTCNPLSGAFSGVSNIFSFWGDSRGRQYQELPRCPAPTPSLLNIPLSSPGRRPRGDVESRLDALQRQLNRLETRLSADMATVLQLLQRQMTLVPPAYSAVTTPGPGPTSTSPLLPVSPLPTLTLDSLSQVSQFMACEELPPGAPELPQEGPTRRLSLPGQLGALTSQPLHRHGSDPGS
assayEndpoint: pIC50
pIC50 here is simply -log10 of the concentration when that concentration is written in mol/L.

Measured pIC50, "O=C1COc2cc(Cl)c(CNC34CCC(C[C@]5(O)Cn6c(=O)ccc7ncc(F)c5c76)(CC3)OC4)nc2N1" : 3.90

Measured pIC50, "O=C1COc2cc(F)c(CNC34CCC(C[C@]5(O)Cn6c(=O)ccc7ncc(F)c5c76)(CC3)OC4)nc2N1" : 3.48

Measured pIC50, "O=C1COc2cnc(CNC34CCC(C[C@]5(O)Cn6c(=O)ccc7ncc(F)c5c76)(CC3)OC4)nc2N1" : 4.52

###

system: Staphylococcus aureus; test: Ratio of MIC for quinolone-resistant Staphylococcus aureus MS5935 to MIC for quinolone-sensitive Staphylococcus aureus; type: functional
Kindly supply the reported Ratio values for the records listed here.

Measured Ratio, "Nc1cc2c(nc1CNC13CCC(C[C@]4(O)Cn5c(=O)ccc6ncc(F)c4c65)(CC1)OC3)NC(=O)CO2" : <4

Measured Ratio, "O=c1ccc2ncc(F)c3c2n1C[C@@]3(O)CC12CCC(NC/C(F)=C\c3cc(F)ccc3F)(CC1)CO2" : <4

Measured Ratio, "O=C1COc2cc(OC(=O)c3ccccc3)c(CNC34CCC(C[C@]5(O)Cn6c(=O)ccc7ncc(F)c5c76)(CC3)OC4)nc2N1" : <4

Measured Ratio, "O=c1ccc2ncc(F)c3c2n1C[C@@]3(O)CC12CCC(NCc3cc(-c4cccs4)on3)(CC1)CO2" : <4

Measured Ratio, "O=c1ccc2ncc(F)c3c2n1C[C@@]3(O)CC12CCC(NCc3cc4c(cn3)S(=O)(=O)CCO4)(CC1)CO2" : <4

Measured Ratio, "O=C1COc2cc(F)c(CNC34CCC(C[C@]5(O)Cn6c(=O)ccc7ncc(F)c5c76)(CC3)OC4)nc2N1" : <4

Measured Ratio, "CN1CCOc2nc(CNC34CCC(C[C@]5(O)Cn6c(=O)ccc7ncc(F)c5c76)(CC3)OC4)ccc21" : <4

Measured Ratio, "COc1ccc2nc(CNC34CCC(C[C@]5(O)Cn6c(=O)ccc7ncc(F)c5c76)(CC3)OC4)c(F)cc2n1" : <4

Measured Ratio, "C[C@H]1COc2c(N3CCN(C)CC3)c(F)cc3c(=O)c(C(=O)O)cn1c23.C[C@H]1COc2c(N3CCN(C)CC3)c(F)cc3c(=O)c(C(=O)O)cn1c23.O" : >64

Measured Ratio, "O=C1COc2ccc(C(=O)NC34CCC(C[C@]5(O)Cn6c(=O)ccc7ncc(F)c5c76)(CC3)OC4)nc2N1" : <4

Measured Ratio, "Cn1c(=O)c(CNC23CCC(C[C@]4(O)Cn5c(=O)ccc6ncc(F)c4c65)(CC2)OC3)cc2ccccc21" : <4

Measured Ratio, "O=c1ccc2ncc(F)c3c2n1C[C@@]3(O)CC12CCC(NCCCc3cc(F)ccc3F)(CC1)CO2" : <4

Measured Ratio, CC1COc2cc(CNC34CCC(C[C@]5(O)Cn6c(=O)ccc7ncc(F)c5c76)(CC3)OC4)ncc2O1 (stereo in doubt; 19) : <4

Measured Ratio, "O=c1ccc2ncc(F)c3c2n1C[C@@]3(O)CC12CCC(NC/C(F)=C/c3cc(F)ccc3F)(CC1)CO2" : <4

Measured Ratio, "O=c1cnc2ccc(CNC34CCC(C[C@]5(O)Cn6c(=O)ccc7ncc(F)c5c76)(CC3)OC4)nc2[nH]1" : <4

Measured Ratio, "CN1CCOc2ccc(CNC34CCC(C[C@]5(O)Cn6c(=O)ccc7ncc(F)c5c76)(CC3)OC4)nc21" : <4

Measured Ratio, "O=c1ccc2ncc(F)c3c2n1C[C@@]3(O)CC12CCC(NCc3ccc4c(n3)OCCN4)(CC1)CO2" : <4

Measured Ratio, "CCc1cc2c(nc1CNC13CCC(C[C@]4(O)Cn5c(=O)ccc6ncc(F)c4c65)(CC1)OC3)NC(=O)CO2" : <4

Measured Ratio, "O=C1COc2cnc(CNC34CCC(C[C@]5(O)Cn6c(=O)ccc7ncc(F)c5c76)(CC3)OC4)nc2N1" : <4

Measured Ratio, "O=C1COc2cc(Cl)c(CNC34CCC(C[C@]5(O)Cn6c(=O)ccc7ncc(F)c5c76)(CC3)OC4)nc2N1" : <4
